Reported viability, T/C values for a set of compounds
- Test system: 485368-065-R3-J5-PDC spheroids with HUVEC/MSC, viability;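 note: spheroids exposed to agents for seven days before readout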
- Experimental Protocol: Anticancer human tumor 485368-065-R3-J5-PDC patient-derived pancreatic carcinoma cell line growth inhibition [RAS]
- Particulars: compound 0.1 µM; active compounds read low

Observe how each entry below is paired with its result.
# Compound, Experimental Result
records = [
    ("C=CC(=O)N1CCN(c2nc(OCC3CCCN3C)nc3c(F)c(-c4nc(N)cc(C)c4C(F)(F)F)c(Cl)cc23)C(C)C1 (centres undefined)", "101% [middle of 13 runs]"),
    ("CC(C)NCC(C(=O)N1CCN(c2ncnc3c2C(C)CC3O)CC1)c1ccc(Cl)cc1 (centres undefined)", "100% [middle of 4 runs]"),
    ("C[C@@H](NC(=O)c1ncnc(N)c1Cl)c1ncc(C(=O)Nc2cc(C(F)(F)F)c(Cl)cn2)s1", "104% [middle of 4 runs]"),
]

Q: Value lookup for viability, T/C; key = CC1(O)CCCC1n1c(=O)c(C(F)F)cc2cnc(NC3CCN(S(C)(=O)=O)CC3)nc21 (centres undefined)
A: 74% [middle of 4 runs]

Q: Value lookup for viability, T/C; key = Nc1ccn(C2OC(CO)C(O)C2(F)F)c(=O)n1 (centres undefined)
A: 10.5% [middle of 4 runs]

Q: Value lookup for viability, T/C; key = CCN1CCN(Cc2ccc(Nc3ncc(F)c(-c4cc(F)c5nc(C)n(C(C)C)c5c4)n3)nc2)CC1
A: 75.6% [middle of 4 runs]

Q: Value lookup for viability, T/C; key = C=CC(=O)Nc1cc(Nc2nccc(-c3cn(C)c4ccccc34)n2)c(OC)cc1N(C)CCN(C)C
A: 106% [middle of 4 runs]

Q: Value lookup for viability, T/C; key = CCC(CC)c1cc(NC2CCC(N)C2)n2nccc2n1 (centres undefined)
A: 99.2% [middle of 4 runs]

Q: Value lookup for viability, T/C; key = NC1c2ccccc2OC12CCN(c1cnc3c(N4CCCc5ncccc54)n[nH]c3n1)CC2 (centres undefined)
A: 82.1% [middle of 4 runs]

Data provenance: PubChem BioAssay AID2060902
